- Test system: 786-0 renal
Would you mind answering with one of these outcomes? active, inactive

> print(dat)
                                   compound  label.value
1  CC1=C[C@H]2c3c(c(O)c(O)c4oc5ccccc5c(=O)c34)[C@H](c3cc(O)c(O)c4oc5ccccc5c(=O)c34)[C@H]2C(C)(C)C1     inactive
2  COCCOC(=O)NC(=O)Nc1ccc(/C(=N/O)c2ccc(Cl)cc2)cc1       active
3   COc1cc2c3c(c1)c1cc(OC)c(OC)cc1c[n+]3CC2     inactive
4  OCC1OC(n2ccc3c(NO)ncnc32)C(O)C1O (stereo not given)       active
5   COc1cc(/C=C\[N+](=O)[O-])ccc1OCc1ccccc1     inactive
6         Cc1sc(C)c(Cc2c(C)sc(C)c2CCl)c1CCl     inactive

Ask: # fetch the recorded call for COc1cc2c3c(n(CCCNCCN)c(=O)c2cc1OC)-c1cc2c(cc1C3=O)OCO2 here
Reply: active

Ask: # fetch the recorded call for CC[C@@]1(O)C(=O)NCc2c1cc1n(c2=O)Cc2cc3c(N)cccc3nc2-1 here
Reply: inactive

Ask: # fetch the recorded call for O=S(=O)(NCC1CCC(CNc2ccc(Cl)cc2)CC1)c1ccc(-c2ccccc2)cc1 (stereo not given) here
Reply: inactive

Ask: # fetch the recorded call for CN(C)CCCN1c2nc3ccccc3cc2Sc2cc3ccccc3nc21 here
Reply: inactive

====

Overview of recorded TGI for various molecules
- Tested on: DU-145 prostate
- test_details: NCI tumour cell line growth inhibition, 48 h
Numbers only here, please. The scale is µM.

> print(dat)
                               smiles.input  units.symbol  result
1  ClC(Cl)c1nc(-c2cccnc2)n2nc(-c3ccccc3)cc2n1            µM    3.14
2  Clc1ccc2[nH]cc(-c3nc(-c4c[nH]c5ncccc45)cs3)c2c1            µM    21.4
3             NC(=O)c1cc(Br)cc(C2CCCCC2)c1O            µM    24.9
4  COc1ccc2c(Nc3ccc(NS(C)(=O)=O)cc3)c3ccccc3nc2c1            µM    6.46

// next entry
# molecule O=C1CSC(/C(=C\c2ccc(Cl)cc2)c2nc3ccccc3[nH]2)=N1 ; its TGI = 26.2

====

- System: HOP-62 NSCLC
Would you mind answering with one of these outcomes? active, inactive

compound	label_value
O=C(c1ccc2ncc(-c3nc(NC4CC4)ncc3F)n2c1)N1CCOCC1	inactive
CC/C=C\C[C@H](O)C/C=C1/C(=O)C=C[C@@H]1C/C=C\CCCC(=O)N(C)C	inactive
Cn1c(=O)c(Oc2ccccc2F)cc2cnc(NC3CCOCC3)nc21	inactive

Ask: # fetch the recorded call for Cc1cc(C)c(C[N+](C)(C)C)c(C)c1C here
Reply: active

Ask: # fetch the recorded call for COc1cc2c3c(c1)c1cc(OC)c(OC)cc1c[n+]3CC2 here
Reply: inactive

Ask: # fetch the recorded call for CC1(C)OC(=O)C=C([O-])O1.CC1(C)OC(=O)C=C([O-])O1.O=S(=O)([O-])c1ccc([O-])c2ncccc12.O=S(=O)([O-])c1ccc([O-])c2ncccc12.[Ti+4] here
Reply: inactive
